experiment: Selectivity index, ratio of Cytotoxicity against African green monkey Vero cells assessed as reduction in cell viability after 48 hrs by SRB assay to Antiviral activity against acyclovir-resistant Herpes simplex virus 1 29-R infected in African green monkey Vero cells assessed as inhibition of viral replication after 48 hrs by naphthol blue-black staining-based plaque reduction assay; type: toxicity; conditions: Vero cells infected with HSV-1 29-R, read-out: Ratio CC50/IC50

{"Smiles data": "C[C@]12CC[C@H](n3cc(CO[C@@H]4O[C@H](CO)[C@@H](O[C@H]5O[C@H](CO)[C@@H](O)[C@H](O)[C@H]5O)[C@H](O)[C@H]4O)nn3)C[C@H]1CC[C@@H]1[C@@H]2CC[C@]2(C)[C@@H](C3=CC(=O)OC3)CC[C@]12O", "selectivity ratio at 48 h": 45.4}
{"Smiles data": "CC(=O)OC[C@H]1O[C@H](O[C@H]2[C@H](OC(C)=O)[C@@H](OC(C)=O)[C@H](OCc3cn([C@H]4CC[C@@]5(C)[C@H](CC[C@@H]6[C@@H]5CC[C@]5(C)[C@@H](C7=CC(=O)OC7)CC[C@]65O)C4)nn3)O[C@@H]2COC(C)=O)[C@H](OC(C)=O)[C@@H](OC(C)=O)[C@@H]1OC(C)=O", "selectivity ratio at 48 h": 5.42}
